Known recombinant barcode read abundance (log10) of a selection of sequences
- Protocol Notes: recombinant barcode read abundance after kanamycin selection (control-corrected) (log10(CPM+1)); higher = more efficient recombination; sequences stand for … in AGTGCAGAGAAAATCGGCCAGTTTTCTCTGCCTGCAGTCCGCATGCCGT…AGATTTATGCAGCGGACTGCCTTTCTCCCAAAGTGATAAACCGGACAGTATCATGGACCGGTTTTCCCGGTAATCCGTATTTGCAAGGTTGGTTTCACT; site = the 11-nt target
Note: the reply should be a number with no unit written.

{"columns": ["Sequence String", "Measured Value"],
 "data": [
  ["TCCGGTTCTTGGGTTCTAACCTGTTGCCT (site ACGGGTTCTAG)", 0.0897],
  ["ACGCTGGCTTGGGTTCTAACCTGTTGCCT (site ACTCTGGCTAG)", 0.0925],
  ["TATTCACCTTGGGTTCTAACCTGTTGCCT (site CATTCACCTAG)", 0.0903]
]}

Then this sequence:
Exercise: Field request: recombinant barcode read abundance (log10) | item: AAGGCTACTTGGGTTCTAACCTGTTGCCT (site AAGGCTACTAG)
Key: 0.304

* * *

Known recombinant UMI read abundance (log10) of a selection of sequences
- Protocol Notes: recombinant UMI read abundance after kanamycin selection (control-corrected) (log10(CPM+1)); higher = more efficient recombination; extreme values may be limits of the assay; sequences stand for … in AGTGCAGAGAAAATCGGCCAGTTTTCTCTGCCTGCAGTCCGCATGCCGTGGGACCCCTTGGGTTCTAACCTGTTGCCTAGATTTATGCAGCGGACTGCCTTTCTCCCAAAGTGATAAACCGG…AGGTTGGTTTCACT; site = the 11-nt donor

{"columns": ["Sequence String", "recombinant UMI read abundance (log10)"],
 "data": [
  ["GCGAAAACATGGACCGGTTTTCCCGGTAATCCGTATTTGCG (site GCGAAAACTAG)", 0]
]}

Exercise: Field request: recombinant UMI read abundance (log10) | item: GAACTGGCATGGACCGGTTTTCCCGGTAATCCGTATTTGCG (site GAACTGGCTCG)
Key: 0.715

Exercise: Field request: recombinant UMI read abundance (log10) | item: TCAGACACATGGACCGGTTTTCCCGGTAATCCGTATTTGCG (site TCAGAGACTCG)
Key: 0.0043

Exercise: Field request: recombinant UMI read abundance (log10) | item: ACACGAACATGGACCGGTTTTCCCGGTAATCCGTATTTGTA (site ACACGAACTGA)
Key: 1.52

Exercise: Field request: recombinant UMI read abundance (log10) | item: CCCTCAACATGGACCGGTTTTCCCGGTAATCCGTATTTGAT (site CCCTCAACTAT)
Key: 0.00694

Exercise: Field request: recombinant UMI read abundance (log10) | item: ATCTATACATGGACCGGTTTTCCCGGTAATCCGTATTTGTC (site ATCTATACTGT)
Key: 0

Exercise: Field request: recombinant UMI read abundance (log10) | item: CTAATATCATGGACCGGTTTTCCCGGTAATCCGTATTTGAC (site CTAATATCTGT)
Key: 2.69

Exercise: Field request: recombinant UMI read abundance (log10) | item: TCGCATTCATGGACCGGTTTTCCCGGTAATCCGTATTTGTC (site TCGCATTCTGA)
Key: 0

Exercise: Field request: recombinant UMI read abundance (log10) | item: TAGCTAGCATGGACCGGTTTTCCCGGTAATCCGTATTTGCA (site TAGCTAGCTTA)
Key: 0.178

Exercise: Field request: recombinant UMI read abundance (log10) | item: AGGACTACATGGACCGGTTTTCCCGGTAATCCGTATTTGAA (site AGGACTACTTT)
Key: 1.13

Exercise: Field request: recombinant UMI read abundance (log10) | item: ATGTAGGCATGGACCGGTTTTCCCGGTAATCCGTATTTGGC (site ATGTGGGCTGC)
Key: 0.618

Hey, just so you know, these numbers are from the supplement of paper PMC11208160.
